test: chemical genetic growth profiling, strain panel (AID 1159580);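 also: tested at 20 µM; growth read once vehicle control cultures reached saturation at 30 °C; 1 = growth at the plate median or of vehicle wells; lower values mean less growth of the strain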; details: S. cerevisiae deletion strains, growth OD, locus YLR262C, strain YPT6 (second series), hits give low values
Out of some 5,500 compounds screened, about 2,000 (36%) were called active. Not shown: some 18% with an inconclusive outcome. The list shows a part of the results.
measured_parameter: normalized growth
Lab note: record just the number, no unit beside it.

Bench note: what normalized growth did OC(CCN1CCCCC1)(c1ccccc1)c1ccccc1 show?
1.02

Bench note: what normalized growth did COc1cc(O)c(C(=O)c2ccccc2)cc1O show?
0.768

Bench note: what normalized growth did C=CC1=C(C(=O)O)N2C(=O)[C@@H](NC(=O)/C(=N/O)c3csc(N)n3)[C@H]2SC1 show?
1.04

Bench note: what normalized growth did CC(=O)[C@H]1CCC2C3C[C@H](C)C4=CC(=O)CC[C@]4(C)C3[C@@H](O)C[C@@]21C (some centres not stated) show?
0.95

Bench note: what normalized growth did O=C(O)c1cc(=O)c2ccc(Cl)cc2[nH]1 show?
1

Bench note: what normalized growth did CC1(C)C2CC[C@]3(C)C(C(=O)C=C4[C@@H]5C[C@@](C)(C(=O)O)CC[C@]5(C)CC[C@]43C)[C@@]2(C)CC[C@@H]1O (some centres not stated) show?
0.88

Bench note: what normalized growth did CC(C)[C@H](N)C(=O)OCCOCn1cnc2c(=O)[nH]c(N)nc21 show?
1.01

Bench note: what normalized growth did Cc1ccc(O)cc1 show?
1.04

Bench note: what normalized growth did CCCCCC(=O)O[C@]1(C(C)=O)CCC2C3CCC4=CC(=O)CC[C@]4(C)C3CC[C@@]21C (some centres not stated) show?
1.02

Bench note: what normalized growth did CCCCOc1ccc(C(=O)CCN2CCCCC2)cc1 show?
0.662

Bench note: what normalized growth did CCCCOc1ccc(OCCCN2CCOCC2)cc1 show?
0.771

Bench note: what normalized growth did C/C=C(/C(=C/C)c1ccc(O)cc1)c1ccc(O)cc1 show?
0.659

====

Please provide measured normalized growth for the entries that follow.
assay: chemical genetic growth profiling, strain panel (AID 1159580);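 also: tested at 20 µM; growth read once vehicle control cultures reached saturation at 30 °C; 1 = growth at the plate median or of vehicle wells; lower values mean less growth of the strain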; settings: S. cerevisiae deletion strains, growth OD, locus YNL250W, strain rad50, hits give low values
In all, about 5,500 compounds went through this assay and about 2,000 (36%) were called active. Inconclusive results (about 18%) are left out. The list shows a part of the results.
Lab note: record just the number, no unit beside it.

Bench note: what normalized growth did COc1ccc2c(c1)OC[C@@H](Cc1ccc(OC)c(OC)c1)[C@H]2O show?
0.962

Bench note: what normalized growth did C[CH2][Hg][S]c1ccccc1C(=O)O show?
0.0619

Bench note: what normalized growth did O=C1C[C@@H](c2ccccc2)Oc2cc(O)cc(O)c21 show?
0.954

Bench note: what normalized growth did CCCCOc1ccc(CC(=O)NO)cc1 show?
1

Bench note: what normalized growth did O=C1CC(c2ccccc2)Oc2ccccc21 (configuration not stated) show?
0.966

Bench note: what normalized growth did COc1cc(OC)c2c(c1)OC(c1ccc(OC)c(OC)c1)C(O)C2 (configuration not stated) show?
1.05

Bench note: what normalized growth did O=C1CC(c2ccc(O)cc2)Oc2ccccc21 (configuration not stated) show?
0.876

====

test: chemical genetic growth profiling, strain panel (AID 1159580);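 also: tested at 20 µM; growth read once vehicle control cultures reached saturation at 30 °C; 1 = growth at the plate median or of vehicle wells; lower values mean less growth of the strain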; details: S. cerevisiae deletion strains, growth OD, locus YNR049C, strain mso1, hits give low values
About 2,000 (36%) of roughly 5,500 compounds were called active. Roughly 18% stayed inconclusive and do not appear here. Some of the results follow.
Please provide measured normalized growth for the entries that follow.
Lab note: record just the number, no unit beside it.

Bench note: what normalized growth did O=c1ccc2cc(O)c(O)cc2o1 show?
1.01

Bench note: what normalized growth did COc1ccc(-c2coc3c(O)c(OC)ccc3c2=O)cc1 show?
0.995

Bench note: what normalized growth did CCSC(=N)N show?
1.01

Bench note: what normalized growth did CCCCCC(=O)O[C@]1(C(C)=O)CCC2C3CCC4=CC(=O)CC[C@]4(C)C3CC[C@@]21C (stereo not given in full) show?
1

Bench note: what normalized growth did O=c1ccc2ccccc2o1 show?
0.993

Bench note: what normalized growth did C[N+](C)(C)CCOP(=O)([O-])OP(=O)(O)OC[C@H]1OC(n2ccc(N)nc2=O)[C@H](O)[C@@H]1O (stereo not given in full) show?
0.972

Bench note: what normalized growth did CC(C)(N=NC(C)(C)C(=N)N)C(=N)N show?
1.02

Bench note: what normalized growth did NC(=O)N1c2ccccc2CC(=O)c2ccccc21 show?
0.991

Bench note: what normalized growth did CN1CCCC(n2nc(Cc3ccc(Cl)cc3)c3ccccc3c2=O)CC1 (stereo not given) show?
1

Bench note: what normalized growth did CN1C2CC3C[C@H]1C(O3)C2O (stereo not given in full) show?
0.982

Bench note: what normalized growth did CC1(C)S[C@@H]2[C@H](NC(=O)[C@H](NC(=O)N3CCNC3=O)c3ccccc3)C(=O)N2C1C(=O)O (stereo not given in full) show?
0.975

Bench note: what normalized growth did C=CC1=C(C(=O)O)N2C(=O)[C@@H](NC(=O)/C(=N/O)c3csc(N)n3)[C@H]2SC1 show?
1.02

Bench note: what normalized growth did Cc1cccc(Nc2cc(Cl)nc(SCC(=O)O)n2)c1C show?
0.988

Bench note: what normalized growth did CNC1(C)C2CCC(C2)C1(C)C (stereo not given) show?
0.996

Bench note: what normalized growth did COc1ccc(-c2coc3c(OC)c(OC)cc(O)c3c2=O)cc1 show?
1
